- measuredTarget: Estrogen receptor (Homo sapiens)
- Sequence (whole entry): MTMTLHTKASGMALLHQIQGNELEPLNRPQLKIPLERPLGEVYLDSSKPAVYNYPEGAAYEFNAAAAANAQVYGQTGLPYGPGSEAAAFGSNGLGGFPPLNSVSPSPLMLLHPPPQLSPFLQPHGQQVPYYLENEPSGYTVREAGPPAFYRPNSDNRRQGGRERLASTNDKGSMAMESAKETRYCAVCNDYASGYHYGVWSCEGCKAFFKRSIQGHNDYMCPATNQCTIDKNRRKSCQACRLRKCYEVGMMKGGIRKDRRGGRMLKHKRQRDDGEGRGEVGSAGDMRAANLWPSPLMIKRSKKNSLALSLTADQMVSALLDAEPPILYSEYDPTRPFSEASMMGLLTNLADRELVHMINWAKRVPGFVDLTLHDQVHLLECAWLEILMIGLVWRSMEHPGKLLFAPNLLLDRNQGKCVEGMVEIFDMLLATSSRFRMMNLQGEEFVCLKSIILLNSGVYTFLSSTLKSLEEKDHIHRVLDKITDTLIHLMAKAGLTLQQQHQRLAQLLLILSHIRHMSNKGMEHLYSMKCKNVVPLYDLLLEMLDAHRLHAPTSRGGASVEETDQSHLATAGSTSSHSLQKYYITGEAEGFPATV
- experimentalProtocol: Binding affinity to human ERalpha expressed in yeast relative to estradiol
Calls of active or inactive are those of the source. No cut-off for these calls is given here.
measuredQuantity: Activity

The cases that follow already have their Activity on record.
Request: Name the reported Activity value associated with the compound `CC1=CC[C@@]2(C)CC[C@@](O)(C(C)C)[C@@H]2[C@@H](OC(=O)CCc2ccc(O)cc2)C1`
Result: < 0.0001%

Request: `COc1cc(C(=O)O[C@H]2CC(C)=CC[C@@]3(C)CC[C@@](O)(C(C)C)[C@H]23)ccc1O`
Result: inactive

Request: `COc1cc(C(=O)O[C@H]2CC(C)=CC[C@@]3(C)CC[C@@](O)(C(C)C)[C@H]23)cc(OC)c1OC`
Result: inactive

Request: `CC1=CC[C@@]2(C)CC[C@@](O)(C(C)C)[C@@H]2[C@@H](OC(=O)/C=C/c2ccc(O)cc2)C1`
Result: < 0.0001%

More entries:
Request: Name the reported Activity value associated with the compound `CC1=CC[C@@]2(C)CC[C@@](O)(C(C)C)[C@@H]2[C@@H](OC(=O)Cc2ccc(O)cc2)C1`
Result: < 0.0001%

Request: `CC1=CC[C@@]2(C)CC[C@@](O)(C(C)C)[C@@H]2[C@@H](OC(=O)/C=C/c2ccc(O)c(O)c2)C1`
Result: inactive

Request: `CC(=O)Oc1ccc(C(=O)O[C@H]2CC(C)=CC[C@@]3(C)CC[C@@](O)(C(C)C)[C@H]23)cc1`
Result: 0.2%

Request: `CC1=CC[C@@]2(C)CC[C@@](O)(C(C)C)[C@@H]2[C@@H](OC(=O)c2ccc(O)c(O)c2)C1`
Result: < 0.1%

----------
- measuredTarget: UniProt:P03372
- experimentalProtocol: Binding affinity to human ERalpha expressed in yeast relative to estradiol
Activity calls are given as the source filed them. The rule behind the calls is not given here.
measuredQuantity: Activity

The cases that follow already have their Activity on record.
Request: Name the reported Activity value associated with the molecule `COc1cc(/C=C/C(=O)O[C@H]2CC(C)=CC[C@@]3(C)CC[C@@](O)(C(C)C)[C@H]23)cc(OC)c1O`
Result: inactive

Request: `COc1cc(CC(=O)O[C@H]2CC(C)=CC[C@@]3(C)CC[C@@](O)(C(C)C)[C@H]23)ccc1O`
Result: inactive

Request: `COc1cc(/C=C/C(=O)O[C@H]2CC(C)=CC[C@@]3(C)CC[C@@](O)(C(C)C)[C@H]23)ccc1O`
Result: inactive

Request: `CC1=CC[C@@]2(C)CC[C@@](O)(C(C)C)[C@@H]2[C@@H](OC(=O)CCc2ccc(O)c(O)c2)C1`
Result: inactive

Request: `CC1=CC[C@@]2(C)CC[C@@](O)(C(C)C)[C@@H]2[C@@H](OC(=O)c2ccccc2)C1`
Result: inactive

The record that follows has no Activity shown yet.
Request: Name the reported Activity value associated with the molecule `COc1ccc(C(=O)O[C@H]2CC(C)=CC[C@@]3(C)CC[C@@](O)(C(C)C)[C@H]23)cc1`
Result: < 0.0001%
